Where these numbers come from: paper PMC4159695

subject-of-test: N‐terminal PAS domain from XC_2579 (Tk 4, residues 1 to 165) (Xanthomonas campestris pv. campestris, UniProt Q8PA41)
Sequence (Q8PA41 14-178): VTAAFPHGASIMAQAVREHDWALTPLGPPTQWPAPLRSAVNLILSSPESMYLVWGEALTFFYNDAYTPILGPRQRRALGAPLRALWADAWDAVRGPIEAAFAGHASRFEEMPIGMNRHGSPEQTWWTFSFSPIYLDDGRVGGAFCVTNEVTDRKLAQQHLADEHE
protocol-details: Isothermal titration calorimetry of DSF and structural analogues binding to Tk 4
assay-context: Kd (M), ITC, Tk 4; higher concentrations of analogues used to estimate Kd
measured-endpoint: Kd (M)

I = CCCCCCCCC/C=C\C(=O)O [cis‐2‐dodecenoic acid (BDSF), cis‐2‐dodecenoic acid]
II = CCCCCCCCCCCC(=O)O
Task: Smaller Kd value, I vs II ? Pick one; state its label.
Result: I
(I: 7.1e-06 M, II: 0.0149 M)

P = CC(C)CCCCCCCCCC(=O)O
Q = CC(C)CCCCCCC/C=C/C(=O)O [trans‐11‐methyl‐2‐dodecenoic acid]
Task: Hi, I'm comparing P with Q and wondering which one has the bigger number for Kd. Any idea? Pick one; state its label.
Result: P
(P: 0.0069 M, Q: 0.00113 M)
